- Test Target: T1, canine NGF tagged at the C-terminus with the Flag tag (canine, UniProt A0A8I3PYI3 122-241)
- T1 construct: mature; Expressed with baculovirus technology; also called feline NGF (processed form identical)
- T1 sequence (A0A8I3PYI3 entry or part of it): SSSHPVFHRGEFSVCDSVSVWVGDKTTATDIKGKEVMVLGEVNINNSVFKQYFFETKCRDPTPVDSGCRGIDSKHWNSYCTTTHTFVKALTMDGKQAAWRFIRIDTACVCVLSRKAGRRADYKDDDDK
- Measurement Notes: SPR off-rate assay, Fab-SASA on BSA chip
The following binders are listed with their measured Ratio (kd) WT/clones values.

[
  {
    "Binder": "AHF17599 (Fab, V domains shown, not shown: small tags and cut ends) VH: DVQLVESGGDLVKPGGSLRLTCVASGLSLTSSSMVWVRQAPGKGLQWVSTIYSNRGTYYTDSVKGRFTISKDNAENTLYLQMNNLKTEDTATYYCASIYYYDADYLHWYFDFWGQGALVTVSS VL: EIQMTQSPTSLSASVGDRVTITCRASEGIANNLSWYQQTPGKAPKLLIYATSVLHSGVPSRFSGSGSGTDFTLTISSLQPEDFATYYCQQGYKWPLTFGGGTKLEITR",
    "Ratio (kd) WT/clones": 1680
  },
  {
    "Binder": "AHF17603 (Fab, V domains shown, not shown: small tags and cut ends) VH: DVQLVESGGDLVKPGGSLRLTCVASGLSLTSSSMVWVRQAPGKGLQWVSTIYSNGGTYYTDSVKGRFTISKDNAENTLYLQMNNLKTEDTATYYCASIYYYDADYLHWYFDEWGQGALVTVSS VL: EIQMTQSPTSLSASVGDRVTITCRASEGIANNLSWYQQTPGKAPKLLIYATSILHSGVPSRFSGSGSGTDFTLTISSLQPEDFATYYCQQGYKWPLTFGGGTKLEITR",
    "Ratio (kd) WT/clones": 6.88
  }
]

Recorded values, source patent US20250011410A1.
